Below: a set of entries, each annotated with reported minimal inhibitory concentration (MIC), Resistant.
- Test system: Resistant Enterococcus faecium and faecalis
- Test: MIC, standard broth micro-dilution assay, Resistant
- Format: cell-based
- Condition info: geometric mean of 4-6 isolates
Observed property: minimal inhibitory concentration (MIC), Resistant

{"columns": ["Compound", "Result"],
 "data": [
  ["CC(C)C[C@@H](NC(=O)OC(C)(C)C)C(=O)N[C@H]1C(=O)N[C@@H](CC(N)=O)C(=O)N[C@H]2C(=O)N[C@H]3C(=O)NC(C(=O)N[C@H](C(=O)O)c4cc(O)cc(O)c4-c4cc3ccc4O)[C@H](OC3CC(C)(N)C(O)C(C)O3)c3ccc(c(Cl)c3)Oc3cc2cc(c3OC2OC(CO)C(O)C(O)C2OC2CC(C)(N)C(O)C(C)O2)Oc2ccc(cc2Cl)[C@H]1O (stereo partly drawn) [Example 14]", ">128"],
  ["CC(C)CCC(=O)N[C@H]1C(=O)N[C@@H](CC(N)=O)C(=O)N[C@H]2C(=O)N[C@H]3C(=O)NC(C(=O)N[C@H](C(=O)O)c4cc(O)cc(O)c4-c4cc3ccc4O)[C@H](OC3CC(C)(N)C(O)C(C)O3)c3ccc(c(Cl)c3)Oc3cc2cc(c3OC2OC(CO)C(O)C(O)C2OC2CC(C)(N)C(O)C(C)O2)Oc2ccc(cc2Cl)[C@H]1O (stereo partly drawn) [Example 4]", ">128"],
  ["CC1OC(OC2C(Oc3c4cc5cc3Oc3ccc(cc3Cl)[C@@H](O)[C@@H](NC(=O)[C@H]3CCCN3C(=O)OC(C)(C)C)C(=O)N[C@@H](CC(N)=O)C(=O)N[C@H]5C(=O)N[C@H]3C(=O)NC(C(=O)N[C@H](C(=O)O)c5cc(O)cc(O)c5-c5cc3ccc5O)[C@H](OC3CC(C)(N)C(O)C(C)O3)c3ccc(c(Cl)c3)O4)OC(CO)C(O)C2O)CC(C)(N)C1O (stereo partly drawn) [Example 24]", ">128"]
]}

----------
Below: a set of entries, each annotated with reported minimal inhibitory concentration (MIC), Resistant.
- Test system: Resistant Enterococcus faecium and faecalis
- Test: MIC, standard broth micro-dilution assay, Resistant
- Format: cell-based
- Condition info: geometric mean of 4-6 isolates
Observed property: minimal inhibitory concentration (MIC), Resistant

{"columns": ["Compound", "Result"],
 "data": [
  ["CC(C)CC(N)C(=O)NC1C(=O)NC(CC(N)=O)C(=O)NC2C(=O)NC3C(=O)NC(C(=O)NC(C(=O)O)c4cc(O)cc(O)c4-c4cc3ccc4O)C(OC3CC(C)(N)C(O)C(C)O3)c3ccc(c(Cl)c3)Oc3cc2cc(c3OC2OC(CO)C(O)C(O)C2O)Oc2ccc(cc2Cl)C1O (stereo not drawn)", ">32"],
  ["CC1OC(OC2C(Oc3c4cc5cc3Oc3ccc(cc3Cl)[C@@H](O)[C@@H](NC(=O)CCCCCCCc3ccccc3)C(=O)N[C@@H](CC(N)=O)C(=O)N[C@H]5C(=O)N[C@H]3C(=O)NC(C(=O)N[C@H](C(=O)O)c5cc(O)cc(O)c5-c5cc3ccc5O)[C@H](OC3CC(C)(N)C(O)C(C)O3)c3ccc(c(Cl)c3)O4)OC(CO)C(O)C2O)CC(C)(N)C1O (stereo partly drawn)", ">128"],
  ["CC1OC(OC2c3ccc(c(Cl)c3)Oc3cc4cc(c3OC3OC(CO)C(O)C(O)C3OC3CC(C)(N)C(O)C(C)O3)Oc3ccc(cc3Cl)C(O)C(NC(=O)C(Cc3ccccc3)N(C)C(=O)OC(C)(C)C)C(=O)NC(CC(N)=O)C(=O)NC4C(=O)NC3C(=O)NC2C(=O)NC(C(=O)O)c2cc(O)cc(O)c2-c2cc3ccc2O)CC(C)(N)C1O (stereo not drawn)", ">128"]
]}

Numbers sourced from patent US6670446B1.
